Data origin, for the record: the supplement of paper PMC7877785

# Assay Overview: self-splicing fitness, log relative to wild type (ln ratio); higher = more splicing; Tetrahymena group I intron in knt gene, E. coli kanamycin selection, DiMSum; sequences stand for … in CUCUCU…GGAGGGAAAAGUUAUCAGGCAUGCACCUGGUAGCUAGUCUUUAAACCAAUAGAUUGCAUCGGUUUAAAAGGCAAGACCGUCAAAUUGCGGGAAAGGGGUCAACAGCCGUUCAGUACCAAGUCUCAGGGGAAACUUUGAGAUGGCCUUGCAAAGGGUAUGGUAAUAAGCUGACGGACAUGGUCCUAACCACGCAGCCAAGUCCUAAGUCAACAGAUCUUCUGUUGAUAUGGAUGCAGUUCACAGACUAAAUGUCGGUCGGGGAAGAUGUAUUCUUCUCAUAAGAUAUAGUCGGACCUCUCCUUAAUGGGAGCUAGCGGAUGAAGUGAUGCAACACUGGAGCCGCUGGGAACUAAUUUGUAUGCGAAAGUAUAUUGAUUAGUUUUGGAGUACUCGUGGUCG;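 note: selection with 25 µg/mL kanamycin versus none on LB agar overnight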
# Experimental Setup: 30 °C
Measurement Type: self-splicing fitness (ln)

[
  {
    "Sequence Record": "GCUGAGCAAUAUUACGGAUC",
    "Value Observed": -1.43
  },
  {
    "Sequence Record": "UGCGAGCAAUAUUACGCAAU",
    "Value Observed": -3.57
  },
  {
    "Sequence Record": "CGGUAGCAAUAUUACGAGGA",
    "Value Observed": -3.34
  },
  {
    "Sequence Record": "AUCUAGCAAUAUUACGUCGA",
    "Value Observed": -1.39
  },
  {
    "Sequence Record": "GAGCAGCAAUAUUACGUCGG",
    "Value Observed": -4.09
  },
  {
    "Sequence Record": "AUAGAGCAAUAUUACGAUGG",
    "Value Observed": -2.76
  },
  {
    "Sequence Record": "CAAAAGCAAUAUUACGUGAG",
    "Value Observed": -1.06
  },
  {
    "Sequence Record": "UGCCAGCAAUAUUACGACCG",
    "Value Observed": -0.712
  }
]

###

Listing of recorded self-splicing fitness (ln) by entry.
# Assay Overview: self-splicing fitness, log relative to wild type (ln ratio); higher = more splicing; Tetrahymena group I intron in knt gene, E. coli kanamycin selection, DiMSum; sequences stand for … in CUCUCU…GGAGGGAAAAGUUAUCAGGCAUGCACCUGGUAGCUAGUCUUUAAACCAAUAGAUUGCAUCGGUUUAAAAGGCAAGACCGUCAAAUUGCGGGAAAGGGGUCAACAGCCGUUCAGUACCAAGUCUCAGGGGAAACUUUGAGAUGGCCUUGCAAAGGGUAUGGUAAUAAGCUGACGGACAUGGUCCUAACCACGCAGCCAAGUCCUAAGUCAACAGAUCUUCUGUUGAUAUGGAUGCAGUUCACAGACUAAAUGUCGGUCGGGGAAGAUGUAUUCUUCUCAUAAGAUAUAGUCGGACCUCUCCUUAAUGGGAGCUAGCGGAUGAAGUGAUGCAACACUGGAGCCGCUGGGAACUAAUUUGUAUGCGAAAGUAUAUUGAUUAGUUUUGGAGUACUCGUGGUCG
# Experimental Setup: 30 °C
Measurement Type: self-splicing fitness (ln)

[
  {
    "Sequence Record": "ACUCAGCAAUAUUACGUAUA",
    "Measurement Type": "self-splicing fitness (ln)",
    "Value Observed": -2.19
  },
  {
    "Sequence Record": "AAUGAGCAAUAUUACGUAUU",
    "Measurement Type": "self-splicing fitness (ln)",
    "Value Observed": -3.41
  },
  {
    "Sequence Record": "GCUCAGCAAUAUUACGUAUU",
    "Measurement Type": "self-splicing fitness (ln)",
    "Value Observed": -0.945
  },
  {
    "Sequence Record": "GCAAAGCAAUAUUACGGGUG",
    "Measurement Type": "self-splicing fitness (ln)",
    "Value Observed": -1.23
  },
  {
    "Sequence Record": "AUAGAGCAAUAUUACGGUAA",
    "Measurement Type": "self-splicing fitness (ln)",
    "Value Observed": -1.76
  },
  {
    "Sequence Record": "GGCCAGCAAUAUUACGGUCA",
    "Measurement Type": "self-splicing fitness (ln)",
    "Value Observed": -0.963
  },
  {
    "Sequence Record": "CUACAGCAAUAUUACGCCUU",
    "Measurement Type": "self-splicing fitness (ln)",
    "Value Observed": -2.27
  },
  {
    "Sequence Record": "AAGAAGCAAUAUUACGCUCG",
    "Measurement Type": "self-splicing fitness (ln)",
    "Value Observed": -0.487
  }
]
